Give measured normalized growth for each item. Keep answers brief.
# experiment summary: chemical genetic growth profiling, strain panel (AID 1159580);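 further: tested at 20 µM; growth read once vehicle control cultures reached saturation at 30 °C; 1 = growth at the plate median or of vehicle wells; lower values mean less growth of the strain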
# reported conditions: S. cerevisiae deletion strains, growth OD, locus YGL253W, strain hxk2, stronger effect = lower value
Hit rate of the full screen: of about 5,500 compounds, about 2,000 (36%) were called active. Roughly 18% stayed inconclusive and do not appear here. The list shows a part of the results.
Note: the reply should be a number with no unit written.

stdin: Which value of normalized growth has been reported for CC(=O)O[C@@H]1c2c(ccc3ccc(=O)oc23)OC(C)(C)[C@@H]1OC(=O)CC(C)C in the records?
stdout: 0.986

stdin: Which value of normalized growth has been reported for CC1=CC(=O)C(C(C)C)=CC1=O in the records?
stdout: 0.956

stdin: Which value of normalized growth has been reported for CC1(C)O[C@@H]2CC3C4C[C@H](F)C5=CC(=O)CC[C@]5(C)C4[C@@H](O)C[C@]3(C)[C@]2(C(=O)CO)O1 (some centres not stated) in the records?
stdout: 1

stdin: Which value of normalized growth has been reported for Cc1c(OCC(F)(F)F)ccnc1CS(=O)c1nc2ccccc2[nH]1 (configuration not stated) in the records?
stdout: 1.01

stdin: Which value of normalized growth has been reported for NC(=O)c1ccccc1O in the records?
stdout: 0.997

stdin: Which value of normalized growth has been reported for COc1cc(C(=O)N2CCOCC2)cc(OC)c1OC in the records?
stdout: 0.97

stdin: Which value of normalized growth has been reported for Nc1nc(/C(=C/CC(=O)O)C(=O)N[C@@H]2C(=O)N3C(C(=O)O)=CCS[C@H]23)cs1 in the records?
stdout: 1

stdin: Which value of normalized growth has been reported for C/C=C(\C)C(=O)O[C@@H]1c2c(ccc3ccc(=O)oc23)OC(C)(C)[C@@H]1OC(C)=O in the records?
stdout: 0.963

stdin: Which value of normalized growth has been reported for CC(C)=CC1C(CO)C1(C)C (configuration not stated) in the records?
stdout: 1.02

stdin: Which value of normalized growth has been reported for O=C(/C=C(\O)c1ccccc1)c1ccccc1O in the records?
stdout: 0.543

stdin: Which value of normalized growth has been reported for COC1=CC(=O)C=C(OC)C1=O in the records?
stdout: 1.01

stdin: Which value of normalized growth has been reported for COC(=O)C(N)CS (configuration not stated) in the records?
stdout: 0.976

====

# experiment summary: chemical genetic growth profiling, strain panel (AID 1159580);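 further: tested at 20 µM; growth read once vehicle control cultures reached saturation at 30 °C; 1 = growth at the plate median or of vehicle wells; lower values mean less growth of the strain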
# reported conditions: S. cerevisiae deletion strains, growth OD, locus YNL307C, strain MCK1 (second series), stronger effect = lower value
Out of some 5,500 compounds screened, about 2,000 (36%) were called active. Roughly 18% stayed inconclusive and do not appear here. The list shows a part of the results.
assay metric: normalized growth
Note: the reply should be a number with no unit written.

stdin: Which value of normalized growth has been reported for Cc1ccc(OS(=O)(=O)c2c(Cl)sc(Cl)c2Br)c([N+](=O)[O-])n1 in the records?
stdout: 0.965

stdin: Which value of normalized growth has been reported for COC(=O)/C=C1/OC(c2ccc(OC)cc2)=CC1=O in the records?
stdout: 0.123

stdin: Which value of normalized growth has been reported for FC(F)(F)Oc1ccc(OCc2n[nH]c(=S)n2-c2ccc(Cl)cc2)cc1 in the records?
stdout: 0.999

stdin: Which value of normalized growth has been reported for N/C(=N/OC(=O)c1cnn(-c2ccc([N+](=O)[O-])cc2)c1C(F)(F)F)c1ccc(Cl)cc1 in the records?
stdout: 0.987

stdin: Which value of normalized growth has been reported for O=C1Nc2ccccc2/C1=C\c1c[nH]c2ccccc12 in the records?
stdout: 0.134

stdin: Which value of normalized growth has been reported for Clc1cccc(Cl)c1C1CC(c2ccccc2)=Nc2ccccc2S1 (configuration not stated) in the records?
stdout: 0.999

stdin: Which value of normalized growth has been reported for FC(F)(F)Sc1ccc(OCc2n[nH]c(=S)n2-c2ccccc2)cc1 in the records?
stdout: 0.91

stdin: Which value of normalized growth has been reported for COc1ccccc1N1CCN(C(=O)C(C)c2ccc(CC(C)C)cc2)CC1 (configuration not stated) in the records?
stdout: 0.924

stdin: Which value of normalized growth has been reported for O=C(O/N=C1/CCCc2[nH]c3ccccc3c21)C1CCCCC1 in the records?
stdout: 0.911

stdin: Which value of normalized growth has been reported for N/C(=N/OC(=O)c1ccc([N+](=O)[O-])cc1)c1c(Cl)cccc1Cl in the records?
stdout: 0.613

stdin: Which value of normalized growth has been reported for CCn1nc(C)cc1C(=O)Sc1cccc(Br)c1 in the records?
stdout: 0.601

stdin: Which value of normalized growth has been reported for Cc1ccc(Sc2ncccc2NS(=O)(=O)c2ccc(Cl)cc2)cc1 in the records?
stdout: 0.885

stdin: Which value of normalized growth has been reported for Cc1cc(Br)c(O)c(/C=N\NC(=S)NC(C)(C)C)c1 in the records?
stdout: 0.893

stdin: Which value of normalized growth has been reported for O=C(NNc1cc(C(F)(F)F)cc(C(F)(F)F)c1)c1cnc2n(c1=O)CCS2 in the records?
stdout: 0.935

stdin: Which value of normalized growth has been reported for ONC(=Nc1ccccc1Cl)c1ccccc1Cl in the records?
stdout: 0.811

stdin: Which value of normalized growth has been reported for CC1(C)C=Cc2cc(/C(N)=N\OC(=O)Nc3cccc(C(F)(F)F)c3)ccc2O1 in the records?
stdout: 0.931

stdin: Which value of normalized growth has been reported for CO/N=C1/CC(C)(C)Cc2c(-c3ccn(C(=O)Nc4cccc(Cl)c4)n3)sc(SC)c21 in the records?
stdout: 0.992

stdin: Which value of normalized growth has been reported for N#Cc1ccc2[nH]cc(CCN(Cc3ccccc3)Cc3ccccc3)c2c1 in the records?
stdout: 0.98

stdin: Which value of normalized growth has been reported for O=C1OC(c2ccccc2)=C/C1=C/c1ccccc1 in the records?
stdout: 0.95

stdin: Which value of normalized growth has been reported for O=C(O/N=C1/CCCc2[nH]c3ccccc3c21)c1ccc(Cl)cc1Cl in the records?
stdout: 0.937

stdin: Which value of normalized growth has been reported for O=C(Nc1cc2ccccc2s1)N1CCN(Cc2c(F)cccc2Cl)CC1 in the records?
stdout: 0.961

stdin: Which value of normalized growth has been reported for N#C/C(N=Cc1cc(Cl)cc(Cl)c1O)=C(\C#N)N=Cc1cc(Cl)cc(Cl)c1O in the records?
stdout: 0.286

stdin: Which value of normalized growth has been reported for O=C(Nc1ccccc1C(=O)O)OCC1c2ccccc2-c2ccccc21 in the records?
stdout: 0.703

stdin: Which value of normalized growth has been reported for CN(C)/C=C1\CSc2ccc(Cl)cc2C1=O in the records?
stdout: 0.822

stdin: Which value of normalized growth has been reported for CN1/C(=C/C=C/c2ccc3ccccc3[n+]2C)C=Cc2ccccc21 in the records?
stdout: 0.189

stdin: Which value of normalized growth has been reported for C/C(=N/NC(N)=S)c1csc(-c2ccccc2)n1 in the records?
stdout: 0.754

stdin: Which value of normalized growth has been reported for O=C1/C(=C/c2c[nH]c3ccccc23)CSc2ccccc21 in the records?
stdout: 0.995

====

# experiment summary: chemical genetic growth profiling, strain panel (AID 1159580);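 further: tested at 20 µM; growth read once vehicle control cultures reached saturation at 30 °C; 1 = growth at the plate median or of vehicle wells; lower values mean less growth of the strain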
# reported conditions: S. cerevisiae deletion strains, growth OD, locus YJR066W, strain TOR1, stronger effect = lower value
Among all 5,500 compounds or so, about 2,000 (36%) were called active. About 18% were inconclusive and are not listed. This is one part of the list.
assay metric: normalized growth
Note: the reply should be a number with no unit written.

stdin: Which value of normalized growth has been reported for CO[C@H]1[C@H](O)[C@@H](O[C@H]2CC[C@]3(C=O)C4CC[C@]5(C)[C@@H](C6=CC(=O)OC6)CC[C@]5(O)C4CC[C@@H]3C2)O[C@@H](C)[C@@H]1O (stereo partly drawn) in the records?
stdout: 0.972

stdin: Which value of normalized growth has been reported for CO[C@@H]1[C@@H](OC(N)=O)[C@@H](O)[C@H](Oc2ccc3c(O)c(NC(=O)c4ccc(O)c(CC=C(C)C)c4)c(=O)oc3c2C)OC1(C)C in the records?
stdout: 0.896

stdin: Which value of normalized growth has been reported for COC1=CC(C)[C@@H]2C[C@H]3OC(=O)C[C@H]4C(C)=C(OC)C(=O)C([C@@]34C)[C@@]2(C)C1=O (stereo partly drawn) in the records?
stdout: 0.993

stdin: Which value of normalized growth has been reported for C[C@H]1O[C@@H](O[C@H]2[C@@H](O)C[C@H](O[C@H]3[C@@H](O)C[C@H](O[C@H]4CC[C@]5(C)C6C[C@@H](O)[C@]7(C)[C@@H](C8=CC(=O)OC8)CC[C@]7(O)C6CC[C@@H]5C4)O[C@@H]3C)O[C@@H]2C)C[C@H](O)[C@@H]1O (stereo partly drawn) in the records?
stdout: 0.966

stdin: Which value of normalized growth has been reported for COc1ccc(-c2cc(=O)c3c(O)cc(O)cc3o2)cc1O in the records?
stdout: 0.986

stdin: Which value of normalized growth has been reported for Clc1cccc(Cl)c1C1CC(c2ccccc2)=Nc2ccccc2S1 (stereo not drawn) in the records?
stdout: 0.991

stdin: Which value of normalized growth has been reported for C[C@]12CC[C@H](O)C[C@H]1CCC1C2CC[C@]2(C)[C@@H](C3=CC(=O)OC3)[C@@H](O)C[C@]12O (stereo partly drawn) in the records?
stdout: 0.968

stdin: Which value of normalized growth has been reported for C[C@H]1O[C@@H](O[C@H]2[C@@H](O)C[C@H](O[C@H]3[C@@H](O)C[C@H](O[C@H]4CC[C@]5(C)C6CC[C@]7(C)[C@@H](C8=CC(=O)OC8)CC[C@]7(O)C6CC[C@@H]5C4)O[C@@H]3C)O[C@@H]2C)C[C@H](O)[C@@H]1O (stereo partly drawn) in the records?
stdout: 0.958

stdin: Which value of normalized growth has been reported for NCCCCN in the records?
stdout: 0.93

stdin: Which value of normalized growth has been reported for O=c1c(-c2ccc(O)cc2)coc2c(C3O[C@H](CO)[C@@H](O)[C@H](O)[C@H]3O)c(O)ccc12 (stereo partly drawn) in the records?
stdout: 0.898

stdin: Which value of normalized growth has been reported for COC1C(O)C(C)OC(O[C@H]2CC[C@]3(C=O)C4C(CC[C@]3(O)C2)[C@@]2(O)CC[C@H](C3=CC(=O)OC3)[C@@]2(C)C[C@H]4O)C1O (stereo partly drawn) in the records?
stdout: 0.979

stdin: Which value of normalized growth has been reported for O=C(NC(=S)NNc1ncc(C(F)(F)F)cc1Cl)c1cccs1 in the records?
stdout: 0.237

stdin: Which value of normalized growth has been reported for C[C@H]1OC(O[C@H]2[C@@H](O)CC(O[C@H]3[C@@H](O)C[C@H](O[C@H]4CC[C@]5(C)C6CC[C@]7(C)[C@@H](C8=CC(=O)OC8)[C@@H](O)C[C@]7(O)[C@@H]6CC[C@@H]5C4)O[C@@H]3C)O[C@@H]2C)C[C@H](O)C1O (stereo partly drawn) in the records?
stdout: 0.965
